Entries annotated with measured inhibition in vivo at 20 mg/kg
tested on: Rattus norvegicus; test: Percent inhibition for analgesic activity by trypsin-induced hyperalgesia assay at 20 mg/kg by oral administration in rats; assay type: functional
// units = %; emit number, no label

Some compounds with recorded inhibition in vivo at 20 mg/kg:
                                   compound               property_measured  endpoint_unit  endpoint_result
0                NC(=O)/C=C1/CCc2ccc(F)cc21  inhibition in vivo at 20 mg/kg              %               24
1          O=C(/C=C1\CCc2ccc(F)cc21)NC1CCC1  inhibition in vivo at 20 mg/kg              %               17
2  NC(=O)CC1CCc2c(F)cc(F)cc21 (centres undefined)  inhibition in vivo at 20 mg/kg              %               11
3                Cc1cccc2c1/C(=C/C(N)=O)CC2  inhibition in vivo at 20 mg/kg              %               12
4            CNC(=O)/C=C1\CCc2cc(F)cc(F)c21  inhibition in vivo at 20 mg/kg              %               33
5           Cc1cccc2c1/C(=C/C(=O)NC1CC1)CC2  inhibition in vivo at 20 mg/kg              %               24
6          O=C(/C=C1\CCc2c(F)cc(F)cc21)NCCO  inhibition in vivo at 20 mg/kg              %               27
7         O=C(/C=C1\CCc2ccc(F)cc21)NC1CCCC1  inhibition in vivo at 20 mg/kg              %                6

Q. Query the reported inhibition in vivo at 20 mg/kg for Rattus norvegicus; item: CN(C)C(=O)/C=C1\CCc2c(F)cc(F)cc21
A. 75

Q. Field entry: O=C(/C=C1\CCc2ccc(F)cc21)NCc1ccccc1
A. 8

Q. Field entry: NC(=O)/C=C1\CCc2c(F)cc(F)cc21
A. 100

Q. Field entry: CNC(=O)/C=C1\CCc2c(F)cc(F)cc21
A. 65

Q. Field entry: NC(=O)/C=C1\CCc2ccc(F)cc21
A. 60

Q. Field entry: NC(=O)/C=C1\CCc2cc(F)c(F)cc21
A. 62

###

tested on: Rattus norvegicus; test: Antiinflammatory activity in edema by Carrageenan pleurisy assay by oral administration; format: functional
Entries annotated with measured ED50
// units = mg/kg; emit number, no label

                    compound_structure        target_desc  property_measured  endpoint_unit  endpoint_result
0       CN(C)C(=O)/C=C1\CCc2ccc(F)cc21  Rattus norvegicus               ED50          mg/kg               12
1       CNC(=O)/C=C1\CCc2cc(F)c(F)cc21  Rattus norvegicus               ED50          mg/kg               11
2    O=C(/C=C1\CCc2ccc(F)cc21)NC1CCCC1  Rattus norvegicus               ED50          mg/kg               11
3  O=C(/C=C1\CCc2ccc(F)cc21)NCc1ccccc1  Rattus norvegicus               ED50          mg/kg                8
4          NC(=O)/C=C1\CCc2ccc(Cl)cc21  Rattus norvegicus               ED50          mg/kg               33

Q. Entry NC(=O)/C=C1\CCc2cc(F)c(F)cc21 has what ED50?
A. 17

Q. Field entry: NC(=O)/C=C1\CCc2c(F)cc(F)cc21
A. 15

Q. Field entry: NC(=O)/C=C1\CCc2ccc(F)cc21
A. 20

Cited source for all entries: ChEMBL document CHEMBL1144887
